Value source: patent US11236083B2

Reported pIC50 values follow for various compounds
target_or_system: Sgk1 (Homo sapiens, UniProt O00141)
Sequence (O00141 1-431): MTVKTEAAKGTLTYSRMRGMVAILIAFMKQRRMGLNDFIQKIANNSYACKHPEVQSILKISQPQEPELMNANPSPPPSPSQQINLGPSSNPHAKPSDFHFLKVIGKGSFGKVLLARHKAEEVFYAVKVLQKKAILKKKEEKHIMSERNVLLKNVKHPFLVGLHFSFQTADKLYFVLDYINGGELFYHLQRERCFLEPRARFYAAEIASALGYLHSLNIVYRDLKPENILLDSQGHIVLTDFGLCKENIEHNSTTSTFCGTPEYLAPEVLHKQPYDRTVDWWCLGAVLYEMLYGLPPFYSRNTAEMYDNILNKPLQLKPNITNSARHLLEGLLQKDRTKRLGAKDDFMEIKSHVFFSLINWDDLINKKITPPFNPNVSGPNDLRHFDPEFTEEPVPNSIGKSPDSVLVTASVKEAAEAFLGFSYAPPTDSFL
experimental_protocol: Enzyme based assay for SGK1 (biotinylated Akt Substrates-2 peptide, Eu3+ Cryptate/XL665 detection)
Format: biochemical
measurement_conditions: 1 mM ATP; read-out: Sgk1 (1 mM ATP)
Just the number, please; pIC50 means minus log10 of the concentration in mol/L.

[[record]]
compound = "COc1ccc(F)c(S(=O)(=O)Nc2ccc(-c3cc(OCC4CNCCO4)c4c(N)n[nH]c4c3)cc2)c1 (stereo not drawn)"
target_or_system = "Sgk1 (Homo sapiens, UniProt O00141)"
assay_value = 8.41

[[record]]
compound = "COc1ccc(F)c(S(=O)(=O)Nc2ccc(-c3cc(OCC4CNCCO4)c4cn[nH]c4n3)cc2)c1 (stereo not drawn)"
target_or_system = "Sgk1 (Homo sapiens, UniProt O00141)"
assay_value = 7.97

[[record]]
compound = "COCCOc1cc(-c2ccc(NS(=O)(=O)c3cc(OC)ccc3F)cc2)cc2[nH]nc(N)c12"
target_or_system = "Sgk1 (Homo sapiens, UniProt O00141)"
assay_value = 7.03

[[record]]
compound = "Nc1n[nH]c2cc(-c3ccc(NS(=O)(=O)c4cc(Cl)ccc4F)cc3)ccc12"
target_or_system = "Sgk1 (Homo sapiens, UniProt O00141)"
assay_value = 6.95

[[record]]
compound = "COc1ccc(F)c(S(=O)(=O)Nc2ccc(-c3cc(OCCN(C)C)c4c(N)n[nH]c4n3)cc2)c1"
target_or_system = "Sgk1 (Homo sapiens, UniProt O00141)"
assay_value = 6.73


Query: For the record COc1ccc(Cl)c(S(=O)(=O)Nc2ccc(-c3cc4[nH]ncc4c(OCC4CNCCO4)n3)cc2)c1 (stereo not drawn) , what value of pIC50 is listed for Sgk1 (Homo sapiens, UniProt O00141)?
Result: 8.16

Query: Enter reported pIC50 observed with Sgk1 (Homo sapiens, UniProt O00141) for CCOc1cc(-c2ccc(NS(=O)(=O)c3cc(OC)ccc3F)cc2)nc2[nH]nc(N)c12
Result: 8.09

Query: Record COc1ccc(F)c(S(=O)(=O)Nc2cnc(-c3cc(OC)c4c(N)n[nH]c4c3)nc2)c1 : what is its pIC50 with Sgk1 (Homo sapiens, UniProt O00141)?
Result: 7.56

Query: Reported pIC50 for Sgk1 (Homo sapiens, UniProt O00141), given COc1ccc(F)c(S(=O)(=O)Nc2ccc(-c3cc4[nH]ncc4c(OCC4CNCCO4)n3)cc2)c1 (stereo not drawn) [drawing 105] ?
Result: 7.87

Query: Request - read-out pIC50 | tested on Sgk1 (Homo sapiens, UniProt O00141) | compound COc1ccc(F)c(S(=O)(=O)Nc2ccc(-c3cc(OCCO)c4c(N)n[nH]c4c3)cc2)c1
Result: 8.11
